- Test system: Yap1 mRNA
- PROTOCOL NOTES: Dose-dependent inhibition of human Yap1 in SNU-449 cells (Example 9, RTS36584)
- Type: cell-based
- ASSAY SETUP: 500.0 nM, free uptake, approximately 48 hours
Strand notation (5' to 3'): a small letter for the sugar, then the base; units joined by * are phosphorothioate-linked, units joined directly phosphodiester-linked; [ ] holds rarer units or linkages, { } end groups; capitals alone tell only the bases. e = 2'-O-(2-methoxyethyl) (MOE); k = constrained ethyl (cEt); [5mC] = 5-methylcytosine; d = 2'-deoxy (DNA); m = 2'-O-methyl
Give measured % UTC (Yap1 mRNA) for each item. Keep answers brief.
Output spec: scalar in % UTC, unitless text.

**Q:** Request - read-out % UTC (Yap1 mRNA) | tested on Yap1 mRNA | substance 1198895 (kG*kG*dA*dA*dA*dT*dT*dG*dT*d[5mC]*dT*k[5mC]*dA*kT*dG*k[5mC]; antisense) [compound 1198895]
**A:** 16

**Q:** Now consider 1198543 (kA*kT*kT*dG*dT*d[5mC]*dT*d[5mC]*dA*dT*dG*d[5mC]*k[5mC]*kT*kT*eA; antisense) [compound 1198543] and answer again.
**A:** 19

**Q:** Now consider 1198605 (GTAATATTGCAATCTG; modified gapmer, further chemistry not given here) [compound 1198605] and answer again.
**A:** 7

**Q:** Now consider 958499 (ATTAGAGTATGTGGCA; 3-10-3 cEt gapmer, further chemistry not given here) [compound 958499] and answer again.
**A:** 19

**Q:** Now consider 1076187 (kG*kA*kT*dT*dT*dA*dG*dG*dA*dT*dG*d[5mC]*dA*kT*kG*kG; antisense) [compound 1076187] and answer again.
**A:** 24

**Q:** Now consider 1198624 (kA*k[5mC]*kT*dA*dA*dG*dT*dA*dA*dG*dG*dT*kT*kT*k[5mC]*e[5mC]; antisense) [compound 1198624] and answer again.
**A:** 21

**Q:** Now consider 1198555 (kA*kT*kT*dA*dG*dA*dG*dT*dA*dT*dG*dT*kG*kG*k[5mC]*eA; antisense) [compound 1198555] and answer again.
**A:** 19

**Q:** Now consider 1198656 (kG*k[5mC]*dA*d[5mC]*dT*dT*dT*dT*dA*d[5mC]*dA*dT*kT*eA*kG*eG; antisense) [compound 1198656] and answer again.
**A:** 8

**Q:** Now consider 1198398 (G_{ks}^{m}C_{ds}A_{ds}C_{ds}T_{ds}T_{ds}T_{ds}T_{ds}A_{ds}^{m}C_{ds}A_{ds}T_{ks}T_{es}A_{ks}G_{es}G_{k}; cEt, 2'-MOE, 5-methylcytosine, phosphorothioate modifications, as printed in the source, key not given here) [compound 1198398] and answer again.
**A:** 33

**Q:** Now consider 1198438 (kT*dG*dT*dA*dT*dG*dT*d[5mC]*dA*dG*dA*kA*eG*kA*eG*kT) [compound 1198438] and answer again.
**A:** 7

**Q:** Now consider 1198510 (k[5mC]*kT*d[5mC]*dT*dT*dA*dT*dA*dT*dG*dG*eT*kT*eT*kT*eG; antisense) [compound 1198510] and answer again.
**A:** 18

**Q:** Now consider 1197271 (kT*kT*kT*dA*mA*dA*dG*dT*dG*dT*dA*dT*dG*kT*k[5mC]*kA; antisense) [compound 1197271] and answer again.
**A:** 19

**Q:** Now consider 1198613 (kA*kA*kA*dG*dT*dG*dT*dA*dT*dG*dT*d[5mC]*kA*kG*kA*eA; antisense) [compound 1198613] and answer again.
**A:** 7

**Q:** Now consider 1200862 (kT*kT*kT*dA*dA*mA*dG*dT*dG*dT*dA*dT*dG*kT*k[5mC]*kA; antisense) [compound 1200862] and answer again.
**A:** 35

**Q:** Now consider 1198832 (kG*k[5mC]*dA*d[5mC]*dT*dT*dT*dT*dA*d[5mC]*dA*kT*eT*kA*eG*kG; antisense) [compound 1198832] and answer again.
**A:** 23

**Q:** Now consider 1198815 (kT*kA*dG*dA*dG*dT*dA*dT*dG*dT*dG*kG*e[5mC]*kA*eA*kT; antisense) [compound 1198815] and answer again.
**A:** 34

**Q:** Now consider 1198857 (kT*k[5mC]*dT*dT*dA*dT*dA*dT*dG*dG*dT*kT*eT*kT*eG*kT) [compound 1198857] and answer again.
**A:** 13

**Q:** Now consider 1198202 (kG*kA*dA*dA*dT*dT*dG*dT*d[5mC]*dT*d[5mC]*eA*eT*eG*k[5mC]*k[5mC]; antisense) [compound 1198202] and answer again.
**A:** 16

**Q:** Now consider 1197214 (kA*kG*kT*dG*dT*dA*dT*dG*dT*d[5mC]*dA*dG*dA*kA*kG*kA; antisense) [compound 1197214] and answer again.
**A:** 7

====

- Tested on: Yap1 mRNA
- PROTOCOL NOTES: Dose-dependent inhibition of human Yap1 in A-431 cells (Example 24, 11,000 cells per well, RTS36584, normalized to GAPDH)
- Format: cell-based
- ASSAY SETUP: 1 μM, free uptake, 48 hours, RTS36584, normalized to GAPDH
PROPERTY NAME: Yap1 mRNA, % UTC (% UTC)
Output spec: scalar in % UTC, unitless text.

**Q:** May I ask what Yap1 mRNA, % UTC has been recorded for 1198728 (TATTAGAGTATGTGGC; modified gapmer, further chemistry not given here) [compound 1198728] ?
**A:** 87

**Q:** Now consider 1198440 (AAGTGTATGTCAGAAG; cEt, 2'-MOE, 5-methylcytosine, phosphorothioate modifications, further chemistry not given here) [compound 1198440] and answer again.
**A:** 96

**Q:** Now consider 1198605 (GTAATATTGCAATCTG; modified gapmer, further chemistry not given here) [compound 1198605] and answer again.
**A:** 96

**Q:** Now consider 1198623 (CTAAGTAAGGTTTCCC; modified gapmer, further chemistry not given here) [compound 1198623] and answer again.
**A:** 96

**Q:** Now consider 1198439 (AGTGTATGTCAGAAGA; sugar, 5-methylcytosine, phosphorothioate modifications, further chemistry not given here) [compound 1198439] and answer again.
**A:** 93

**Q:** Now consider 958499 (ATTAGAGTATGTGGCA; 3-10-3 cEt gapmer, further chemistry not given here) [compound 958499] and answer again.
**A:** 117

**Q:** Now consider 1198872 (TGTATGTCAGAAGAGT; chemically modified gapmer, further chemistry not given here) [compound 1198872] and answer again.
**A:** 94

====

Give measured YAP1 (% UTC) for each item. Keep answers brief.
- Test system: Yap1 mRNA
- PROTOCOL NOTES: Antisense inhibition of human Yap1 in A-431 cells by cEt gapmers, single dose (Example 4, RTS4814)
- Format: cell-based
- ASSAY SETUP: Yap1 mRNA remaining as percent of untreated control; 3-10-3 cEt gapmers; A-431 cells; Table 36
Strand notation (5' to 3'): a small letter for the sugar, then the base; units joined by * are phosphorothioate-linked, units joined directly phosphodiester-linked; [ ] holds rarer units or linkages, { } end groups; capitals alone tell only the bases. k = constrained ethyl (cEt); [5mC] = 5-methylcytosine; d = 2'-deoxy (DNA)

**Q:** May I ask what YAP1 (% UTC) has been recorded for 1075062 (antisense k[5mC]*kT*kT*dT*dA*dA*d[5mC]*d[5mC]*dT*dT*dA*dT*dA*k[5mC]*kT*kT) [compound 1075062] ?
**A:** 58 % UTC

**Q:** Now consider 1076470 (kG*kA*kT*dA*dA*dA*dG*dA*dG*dG*dT*dT*dA*kA*k[5mC]*kA; antisense) [compound 1076470] and answer again.
**A:** 34 % UTC

**Q:** Now consider 1076502 (k[5mC]*kA*kA*dA*dG*dT*dA*dA*dG*dT*dG*dA*dG*k[5mC]*k[5mC]*k[5mC]; antisense) [compound 1076502] and answer again.
**A:** 17 % UTC

**Q:** Now consider 1076022 (kT*kA*kA*dT*dT*dA*dG*dA*dT*dG*d[5mC]*dT*dG*kA*k[5mC]*kA; antisense) [compound 1076022] and answer again.
**A:** 2 % UTC

**Q:** Now consider 1074806 (kT*kT*kG*dT*dA*dG*d[5mC]*dA*dA*dA*dG*dT*d[5mC]*kA*k[5mC]*kT; antisense) [compound 1074806] and answer again.
**A:** 8 % UTC

**Q:** Now consider 1074134 (k[5mC]*kG*k[5mC]*dG*dG*d[5mC]*d[5mC]*d[5mC]*d[5mC]*dG*d[5mC]*dA*dT*k[5mC]*k[5mC]*k[5mC]; antisense) [compound 1074134] and answer again.
**A:** 79 % UTC

**Q:** Now consider 1074614 (DNA kT*k[5mC]*kA*dT*dA*dG*d[5mC]*dT*dT*dA*dT*dA*dT*kT*kG*kA; antisense) [compound 1074614] and answer again.
**A:** 49 % UTC

**Q:** Now consider 1075030 (antisense kT*kT*kA*dA*dT*dA*dT*dT*d[5mC]*dG*dA*d[5mC]*dA*k[5mC]*kT*kG) [compound 1075030] and answer again.
**A:** 37 % UTC

**Q:** Now consider 1076118 (k[5mC]*kG*kT*dA*dA*dA*dT*dT*dG*dA*dG*dG*d[5mC]*k[5mC]*k[5mC]*kA; antisense) [compound 1076118] and answer again.
**A:** 45 % UTC

**Q:** Now consider 1074710 (antisense k[5mC]*kT*k[5mC]*dT*dA*dG*dA*dA*d[5mC]*dA*dG*d[5mC]*dT*kG*k[5mC]*k[5mC]) [compound 1074710] and answer again.
**A:** 42 % UTC

**Q:** Now consider 1074870 (kG*kT*kA*dA*dG*dT*dA*d[5mC]*d[5mC]*dT*dA*dA*d[5mC]*kA*kT*kA; antisense) [compound 1074870] and answer again.
**A:** 20 % UTC

**Q:** Now consider 1075126 (k[5mC]*kT*kT*dA*dA*dA*dT*d[5mC]*dT*dT*dA*dG*d[5mC]*kA*kA*k[5mC]; antisense) [compound 1075126] and answer again.
**A:** 20 % UTC

**Q:** Now consider 1075542 (kT*kG*kA*dG*dA*dA*dA*dG*dG*dT*dT*d[5mC]*d[5mC]*kT*kG*kA; antisense) [compound 1075542] and answer again.
**A:** 66 % UTC

**Q:** Now consider 1075574 (antisense kA*kG*kT*d[5mC]*dA*dA*dG*dG*dA*dA*d[5mC]*d[5mC]*dT*kT*k[5mC]*kT) [compound 1075574] and answer again.
**A:** 47 % UTC

**Q:** Now consider 1076214 (kA*kT*k[5mC]*d[5mC]*dT*dA*dT*dA*d[5mC]*dA*dT*dT*dA*kA*kG*kA; antisense) [compound 1076214] and answer again.
**A:** 67 % UTC

**Q:** Now consider 1076278 (kA*kA*kT*dA*dA*dG*dG*dA*d[5mC]*dA*dG*dG*dA*k[5mC]*k[5mC]*k[5mC]; antisense) [compound 1076278] and answer again.
**A:** 29 % UTC

**Q:** Now consider 1074902 (antisense k[5mC]*kT*kA*dT*dT*dA*dA*d[5mC]*dT*dT*dT*dT*dG*kG*kG*k[5mC]) [compound 1074902] and answer again.
**A:** 54 % UTC

**Q:** Now consider 1074838 (kA*kT*kA*dA*d[5mC]*dA*dA*d[5mC]*dA*dT*dG*d[5mC]*dT*kT*kG*k[5mC]; antisense) [compound 1074838] and answer again.
**A:** 9 % UTC
